tested on: A549; experiment: NCI tumour cell line growth inhibition, 48 h
Calls of active or inactive are those of the source. No stated cut-off is given here; in the data, active = GI50 up to about 1.1 µM and inactive = higher.

compound	GI50
COc1ccc(NC(=O)CC/C(CC(=O)C(C)(C)C)=N\NC(=O)C(=O)NN)cc1	> 100 µM (inactive)
NCCSS(=O)(=O)CCN	> 100 µM (inactive)
O=C(CC(=O)Nc1ccccc1)NNC(c1cc(/N=N/c2ccc(Br)cc2)ccc1O)P(O)O (stereo unspecified)	6.41 µM (inactive)
Cc1nc2sccn2c1C(=O)NC(=O)Nc1ccc(Cl)cc1	57.4 µM (inactive)
COC(=O)C(C(=O)Cc1ccccc1[N+](=O)[O-])C(=O)OC	> 100 µM (inactive)
O=C(O)c1cnccc1-c1cc(=O)[nH]n1-c1ccccc1	48.9 µM (inactive)
CN(C)c1cc2ccccc2oc1=O	> 100 µM (inactive)
CC(=O)OC(CC1(C)C(C)CCC23COC(=O)C2=CCCC31)c1ccoc1 (stereo unspecified)	31.6 µM (inactive)
COc1cc(/C=C2\N=C(c3ccccc3)N(/N=C3\C(=O)Nc4ccccc43)C2=O)cc(OC)c1OC	> 100 µM (inactive)
O=C(O)C(Cc1ccccc1-c1ccccc1)C(=O)O	> 100 µM (inactive)
CC1(C)CC2C(C1=O)C1(C)CCCC2(C)C1=O (stereo unspecified)	> 100 µM (inactive)

All values here come from ChEMBL document CHEMBL1201862.
